Data provenance is PubChem BioAssay (NCI).

Test system: MCF7 breast
experimentSummary: NCI-60 one-dose screen, 48 h (100 = growth as untreated, 0 = no growth, -100 = all killed)
studyConditions: 10 µM unless noted
Compounds without any hit were thinned out: in the full panel of roughly 83,000, 20% have a hit. Activity calls are given as the source filed them. The calls were made as follows: active = growth percent below 10; inactive = the rest.
readoutLabel: growth

Req: So what does the record say about growth for "COc1cc2c(cc1-c1c(C)noc1C)ncc1nc(CN3CCOCC3)n([C@H](C)COC(F)F)c12" ?
Resp: 13.2% (inactive)

Req: And then "Clc1ccc(-c2cc(-c3ccccc3)nc(N3CCN(CCCNc4ccnc5cc(Cl)ccc45)CC3)n2)cc1" , what is it?
Resp: -18.5% (active)

Req: And then CCOC(=O)c1cnn(CC(C)O)c1NC(=O)NCc1cccc(F)c1 (stereo unspecified) , what is it?
Resp: 104% (inactive)

Req: And then "COc1cc(C=C2C(=O)NC(=S)NC2=O)cc(CN2CCCC2)c1O" , what is it?
Resp: 96.1% (inactive)

Req: And then COC1C(O)CC(OC2CC(OC3CC(O[C@@H]4C(=O)c5c(cc6cc(OC7CC(OC8CC(O)C(O)C(C)O8)C(O)C(C)O7)c(C)c(O)c6c5O)CC4[C@H](OC)C(=O)C(C)=O)OC(C)C3O)OC(C)C2O)OC1C (stereo partly specified) , what is it?
Resp: 3.16% (active)

Req: And then COC1C(O)CC(OC2CC(OC3CC(O[C@@H]4C(=O)c5c(cc6cc(OC7CC(OC8CC(O)C(O)C(C)O8)C(O)C(C)O7)c(C)c(O)c6c5O)CC4[C@H](OC)[C@@H](O)C(C)=O)OC(C)C3O)OC(C)C2O)OC1C (stereo partly specified) , what is it?
Resp: 4.58% (active)

Req: And then "COc1ccc2cc(C(=O)N3CCC([C@@H](C)C(=O)NCc4ccc5c(c4)OCO5)CC3)[nH]c2c1" , what is it?
Resp: 46.8% [50 µM] (inactive)

Req: And then COc1ccc(C2[C@@H](Cl)C(=O)N2c2cc(OC)c(OC)c(OC)c2)cc1Cl (stereo partly specified) , what is it?
Resp: 14.4% (inactive)

Req: And then "O=c1cc(CP(=O)(O)O)c2cc(O)c(-c3ccccc3)cc2o1" , what is it?
Resp: 96.9% (inactive)

Req: And then "O=C(/C=C/c1cccc(Oc2ccccc2)c1)c1ccc(Nc2nc(Nc3ccc(F)cc3)nc(Nc3ccc(Cl)cc3)n2)cc1" , what is it?
Resp: 89.6% (inactive)

Req: And then "CNCC[C@H](Oc1cccc2ccccc12)c1cccs1" , what is it?
Resp: 78.1% (inactive)

Req: And then "Cc1cc(Cl)nc(N2CCN(CCNc3ccnc4cc(Cl)ccc34)CC2)n1" , what is it?
Resp: 26.8% (inactive)

Req: And then "Nc1nc(C(=O)N/N=C/c2ccc(F)cc2)nn1-c1ccc(S(N)(=O)=O)cc1" , what is it?
Resp: 98.8% (inactive)

Req: And then "N#Cc1c(-c2ccccc2)nc2c(c(-c3ccc(Cl)cc3)nn2-c2ccccc2)c1-c1ccc([N+](=O)[O-])cc1" , what is it?
Resp: 91.7% (inactive)

Req: And then "COc1ccc(N=C2NN=C(c3c[nH]c4ccccc34)CS2)cc1OC" , what is it?
Resp: 42.1% (inactive)

Req: And then "O=C(Nc1ccc(Oc2cccc(Cl)c2)c(Cl)c1)c1cccnn1" , what is it?
Resp: 91.7% (inactive)
